Hey, just so you know, these numbers are from the Immune Epitope Database (IEDB).

- target: HLA-B*44:03
- protocolText: IEDB peptide-MHC binding, purified MHC/competitive/radioactivity; bounds were set here for any values at or beyond the usual limits of such assays
- conditionDescription: source organism: Bordetella pertussis
readoutLabel: IC50

residuesequence=FEGKPALEL target=HLA-B*44:03 readoutlabel=IC50 result="≥ 70.1 µM"

====

- target: HLA-B*07:02
- protocolText: IEDB peptide-MHC binding, purified MHC/competitive/radioactivity; bounds were set here for any values at or beyond the usual limits of such assays
- conditionDescription: source organism: Bordetella pertussis
Recorded IC50 values for a group of sequences are listed next.
readoutLabel: IC50 (µM)

residuesequence=KPLADIAVV numericresult=5.56
residuesequence=NITNKRAAL numericresult=22.9
